# assayText: Selectivity index, ratio of IC50 for cytotoxicity against human HDF cells to IC50 for anticancer activity against human SK-OV-3 cells
# Type: cell-based
# testConditions: HDF cells versus SK-OV-3 cells, read-out: Ratio IC50
Please use 1 for selectivity ratio under 2 and -1 for everything else, ties included.

Example results:
Q: Determine if CO[C@H]1/C=C\C=C(/C)C(=O)NC2=CC(=O)C(NCc3c[nH]nn3)=C(C[C@@H](C)C[C@H](OC)[C@H](O)[C@@H](C)/C=C(\C)[C@@H]1OC(N)=O)C2=O shows selectivity ratio strictly lower than 2.
Ans: -1

Q: What would you report for CO[C@H]1/C=C\C=C(/C)C(=O)NC2=CC(=O)C(NCc3cn([C@@H]4O[C@H](COC(C)=O)[C@H](OC(C)=O)[C@H](OC(C)=O)[C@H]4OC(C)=O)nn3)=C(C[C@@H](C)C[C@H](OC)[C@H](O)[C@@H](C)/C=C(\C)[C@@H]1OC(N)=O)C2=O ?
Ans: 1

Further cases:
Q: Input CO[C@H]1/C=C\C=C(/C)C(=O)NC2=CC(=O)C(NCc3cn(Cc4cccc(C#N)c4)nn3)=C(C[C@@H](C)C[C@H](OC)[C@H](O)[C@@H](C)/C=C(\C)[C@@H]1OC(N)=O)C2=O ; condition: selectivity ratio strictly below 2. Does it hold?
Ans: 1

Q: Repeat for the following molecule: CO[C@H]1/C=C\C=C(/C)C(=O)NC2=CC(=O)C(NCc3cn(Cc4ccc([N+](=O)[O-])o4)nn3)=C(C[C@@H](C)C[C@H](OC)[C@H](O)[C@@H](C)/C=C(\C)[C@@H]1OC(N)=O)C2=O
Ans: 1

====

# assayText: Selectivity index, ratio of IC50 for cytotoxicity against human HDF cells to IC50 for anticancer activity against human SK-BR-3 cells
# Type: toxicity, cell-based
# testConditions: HDF cells versus SK-BR-3 cells, read-out: Ratio IC50
readoutType: selectivity ratio
# answer = number (no unit)

Q: Value lookup for selectivity ratio; key = CO[C@H]1/C=C\C=C(/C)C(=O)NC2=CC(=O)C(NCc3cn(Cc4ccc([N+](=O)[O-])o4)nn3)=C(C[C@@H](C)C[C@H](OC)[C@H](O)[C@@H](C)/C=C(\C)[C@@H]1OC(N)=O)C2=O
Ans: 1.8

Q: Can you handle CO[C@H]1/C=C\C=C(/C)C(=O)NC2=CC(=O)C(NCc3cn([C@@H]4O[C@H](CO)[C@@H](O)[C@H](O)[C@H]4O)nn3)=C(C[C@@H](C)C[C@H](OC)[C@H](O)[C@@H](C)/C=C(\C)[C@@H]1OC(N)=O)C2=O next?
Ans: 1.36

Q: And what about the compound CO[C@H]1/C=C\C=C(/C)C(=O)NC2=CC(=O)C(NCCn3cc(CC(=O)O)nn3)=C(C[C@@H](C)C[C@H](OC)[C@H](O)[C@@H](C)/C=C(\C)[C@@H]1OC(N)=O)C2=O ?
Ans: 1.37

Q: Moving on to the next compound: CO[C@H]1/C=C\C=C(/C)C(=O)NC2=CC(=O)C(NCc3cn([C@@H]4O[C@H](COC(C)=O)[C@H](OC(C)=O)[C@H](OC(C)=O)[C@H]4OC(C)=O)nn3)=C(C[C@@H](C)C[C@H](OC)[C@H](O)[C@@H](C)/C=C(\C)[C@@H]1OC(N)=O)C2=O
Ans: 1.29

Q: Repeat with CO[C@H]1/C=C\C=C(/C)C(=O)NC2=CC(=O)C(NCc3cn(CC4CCCCC4)nn3)=C(C[C@@H](C)C[C@H](OC)[C@H](O)[C@@H](C)/C=C(\C)[C@@H]1OC(N)=O)C2=O
Ans: 1.53

Q: Try this compound too: CO[C@H]1/C=C\C=C(/C)C(=O)NC2=CC(=O)C(NCc3cn(CC4OCCO4)nn3)=C(C[C@@H](C)C[C@H](OC)[C@H](O)[C@@H](C)/C=C(\C)[C@@H]1OC(N)=O)C2=O
Ans: 1.71

New cases:
Q: Reported selectivity ratio for CO[C@H]1/C=C\C=C(/C)C(=O)NC2=CC(=O)C(NCc3cn(Cc4ccc(C(F)(F)F)cc4)nn3)=C(C[C@@H](C)C[C@H](OC)[C@H](O)[C@@H](C)/C=C(\C)[C@@H]1OC(N)=O)C2=O : what is it?
Ans: 1.57

Q: Here is the next compound: CO[C@H]1/C=C\C=C(/C)C(=O)NC2=CC(=O)C(NCCn3cc(-c4ccccn4)nn3)=C(C[C@@H](C)C[C@H](OC)[C@H](O)[C@@H](C)/C=C(\C)[C@@H]1OC(N)=O)C2=O
Ans: 2.08

Q: Here is the next compound: CO[C@H]1/C=C\C=C(/C)C(=O)NC2=CC(=O)C(NCc3cn(Cc4ccc(C)cc4)nn3)=C(C[C@@H](C)C[C@H](OC)[C@H](O)[C@@H](C)/C=C(\C)[C@@H]1OC(N)=O)C2=O
Ans: 1.18

Q: Here is the next compound: CCN(CC)CCn1cc(CNC2=C3C[C@@H](C)C[C@H](OC)[C@H](O)[C@@H](C)/C=C(\C)[C@H](OC(N)=O)[C@@H](OC)/C=C\C=C(/C)C(=O)NC(=CC2=O)C3=O)nn1
Ans: 1.63

Q: Next compound up: CO[C@H]1/C=C\C=C(/C)C(=O)NC2=CC(=O)C(NCc3cn(Cc4ccccc4I)nn3)=C(C[C@@H](C)C[C@H](OC)[C@H](O)[C@@H](C)/C=C(\C)[C@@H]1OC(N)=O)C2=O
Ans: 2.55

Q: And for CO[C@H]1/C=C\C=C(/C)C(=O)NC2=CC(=O)C(NCCN=[N+]=[N-])=C(C[C@@H](C)C[C@H](OC)[C@H](O)[C@@H](C)/C=C(\C)[C@@H]1OC(N)=O)C2=O ?
Ans: 2.19

====

# assayText: Cytotoxicity against human HDF cells assessed as cell growth inhibition incubated for 72 hrs by SRB assay
# Assay type: toxicity, cell-based
# testConditions: HDF cells (normal human dermal fibroblasts, NHDF)
Mark YES only for IC50 at 72 h values smaller than 2000 nM; exact matches and larger values are NO.

Q: Answer whether the molecule CCN(CC)CCn1cc(CNC2=C3C[C@@H](C)C[C@H](OC)[C@H](O)[C@@H](C)/C=C(\C)[C@H](OC(N)=O)[C@@H](OC)/C=C\C=C(/C)C(=O)NC(=CC2=O)C3=O)nn1 has IC50 at 72 h strictly less than 2000 nM
Ans: YES

Q: Repeat with CO[C@H]1/C=C\C=C(/C)C(=O)NC2=CC(=O)C(NCc3cn(Cc4ccccc4)nn3)=C(C[C@@H](C)C[C@H](OC)[C@H](O)[C@@H](C)/C=C(\C)[C@@H]1OC(N)=O)C2=O
Ans: YES

Q: Next up: CO[C@H]1/C=C\C=C(/C)C(=O)NC2=CC(=O)C(NCc3cn([C@@H]4O[C@H](CO)[C@@H](O)[C@H](O)[C@H]4NC(C)=O)nn3)=C(C[C@@H](C)C[C@H](OC)[C@H](O)[C@@H](C)/C=C(\C)[C@@H]1OC(N)=O)C2=O
Ans: NO

Further cases:
Q: I'd appreciate it if you could check whether COC1=C2C[C@@H](C)C[C@H](OC)[C@H](O)[C@@H](C)/C=C(\C)[C@H](OC(N)=O)[C@@H](OC)/C=C\C=C(/C)C(=O)NC(=CC1=O)C2=O [GELDANAMYCIN] has IC50 at 72 h smaller than 2000 nM.
Ans: YES

Q: Item: CO[C@H]1/C=C\C=C(/C)C(=O)NC2=CC(=O)C(NCc3cn(Cc4ccsc4Br)nn3)=C(C[C@@H](C)C[C@H](OC)[C@H](O)[C@@H](C)/C=C(\C)[C@@H]1OC(N)=O)C2=O
Ans: YES

====

# assayText: Selectivity index, ratio of IC50 for cytotoxicity against human HDF cells to IC50 for anticancer activity against human SK-BR-3 cells
# Format: toxicity, cell-based
# testConditions: HDF cells versus SK-BR-3 cells, read-out: Ratio IC50
selectivity ratio: recorded values
Number only, please.

Below are worked cases with known answers.
Q: Which selectivity ratio value belongs to CO[C@H]1/C=C\C=C(/C)C(=O)NC2=CC(=O)C(NCc3cn([C@@H]4O[C@H](CO)[C@@H](O[C@@H]5O[C@H](CO)[C@H](O)[C@H](O)[C@H]5O)[C@H](O)[C@H]4O)nn3)=C(C[C@@H](C)C[C@H](OC)[C@H](O)[C@@H](C)/C=C(\C)[C@@H]1OC(N)=O)C2=O ?
Ans: 1.44

Q: Consider next the molecule CO[C@H]1/C=C\C=C(/C)C(=O)NC2=CC(=O)C(NCc3cn([C@@H]4OC[C@@H](OC(C)=O)[C@H](OC(C)=O)[C@H]4OC(C)=O)nn3)=C(C[C@@H](C)C[C@H](OC)[C@H](O)[C@@H](C)/C=C(\C)[C@@H]1OC(N)=O)C2=O in the same way.
Ans: 1.05

Q: Cool, now CO[C@H]1/C=C\C=C(/C)C(=O)NC2=CC(=O)C(NCCn3cc(C(=O)O)nn3)=C(C[C@@H](C)C[C@H](OC)[C@H](O)[C@@H](C)/C=C(\C)[C@@H]1OC(N)=O)C2=O
Ans: 2.21

Others:
Q: Endpoint output: selectivity ratio of COC(=O)C[C@H]1O[C@@H](n2cc(CNC3=C4C[C@@H](C)C[C@H](OC)[C@H](O)[C@@H](C)/C=C(\C)[C@H](OC(N)=O)[C@@H](OC)/C=C\C=C(/C)C(=O)NC(=CC3=O)C4=O)nn2)[C@H](O)[C@@H](O)[C@@H]1O . Value?
Ans: 1.55

Q: Try this molecule too: CO[C@H]1/C=C\C=C(/C)C(=O)NC2=CC(=O)C(NCc3cn(C4CCCCCC4)nn3)=C(C[C@@H](C)C[C@H](OC)[C@H](O)[C@@H](C)/C=C(\C)[C@@H]1OC(N)=O)C2=O
Ans: 1.65

Q: // same read-out, input: CO[C@H]1/C=C\C=C(/C)C(=O)NC2=CC(=O)C(NCCn3cc(-c4ccsc4)nn3)=C(C[C@@H](C)C[C@H](OC)[C@H](O)[C@@H](C)/C=C(\C)[C@@H]1OC(N)=O)C2=O
Ans: 2.23

Q: Consider next the molecule CO[C@H]1/C=C\C=C(/C)C(=O)NC2=CC(=O)C(NCc3cn([C@@H]4O[C@H](CO)[C@H](O)[C@H](O)[C@H]4O)nn3)=C(C[C@@H](C)C[C@H](OC)[C@H](O)[C@@H](C)/C=C(\C)[C@@H]1OC(N)=O)C2=O in the same way.
Ans: 1.74
